# subject.of.test: Cytochrome P450 2C9 (Homo sapiens)
# assay.remarks: qHTS Assay for Inhibitors and Substrates of Cytochrome P450 2C9 (AID 883); also: nearly all actives have a fitted effect of over 60% in size
# condition.context: recombinant CYP2C9, luciferin-H luminescence, 60 min; series mostly up to 57.1 µM
Inconclusive results are not listed. Calls of active or inactive are those of the source. Calls follow the shape of the dose curve; as a rule, active = well fitted inhibition curve with a large enough effect; inconclusive = small, poorly fitted or top-dose-only effect; inactive = no such curve, though single readings can be large or run the other way.
Outcomes: active, inactive

[[record]]
compound = "CCCc1cc2c(n1Cc1cc(F)cc(F)c1)C(C)C1CN(C(=O)c3ccccc3)C(C)(C(=O)OC)C21 (stereo not given)"
class_label = "active"

[[record]]
compound = "O=c1cc(-c2ccccc2O)oc2c(O)c(O)ccc12"
class_label = "active"

[[record]]
compound = "CCCC/C=C/C(NC(=O)c1cccs1)c1ccccc1 (stereo not given)"
class_label = "active"

[[record]]
compound = "C=C1CC[C@@H](O)C/C1=C/C=C1\\CCC[C@]2(C)[C@@H]1CC[C@H]2[C@@H](C)CCCC(C)C"
class_label = "inactive"

[[record]]
compound = "CC(C)[C@@H](CC(=O)N[C@@H]1CCCC[C@H]1C(=O)N[C@H](CC(=O)N[C@@H](CCC(=O)O)CC(=O)O)Cc1c[nH]c2ccccc12)NC(=O)C[C@H](CO)NC(=O)[C@@H]1CCCC[C@H]1N"
class_label = "inactive"


====

activity change, negative = inhibition values, listed per item
# assay.remarks: NFAT Signaling Pathway (AID 444);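 also: carbachol stimulus at about its EC50 of 1 µM final; % is scaled to controls: 0 for no effect and ±100 for the full control effect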
# condition.context: Jurkat NFAT-bla M1, carbachol, beta-lactamase ratio, 5 h; at 17.2 µM (top of the series) unless noted
Inconclusive results are not listed.
observable: activity change, negative = inhibition (%)

[[record]]
compound = "COc1ccc2c(c1)n([O-])c1c([n+]2=O)CCC1"
measurement = -5.03

[[record]]
compound = "CCC(=O)O[C@@H]1CC(=O)O[C@H](C)CC=CC=C[C@@H](O)[C@H](C)C[C@H](CC=O)[C@H](O[C@H]2O[C@H](C)[C@@H](O[C@H]3C[C@@](C)(O)[C@@H](OC(=O)CC)[C@H](C)O3)[C@H](N(C)C)[C@H]2O)[C@H]1OC"
measurement = 8.88

[[record]]
compound = "CCCOc1ccc(Cn2c(O)cc(=O)[nH]c2=O)cc1"
measurement = 7.39

[[record]]
compound = "c1ccc(-c2nn3c(C4CCCCC4)nnc3s2)cc1"
measurement = -5.79

[[record]]
compound = "COc1ccc(-n2ncc3c(N4CCC(C(N)=O)CC4)ncnc32)cc1"
measurement = 6

[[record]]
compound = "Cn1ncc(N=Cc2ccccc2O)c1C(=O)Nc1ccccc1"
measurement = 7.01

[[record]]
compound = "CCOc1ccc(-c2nc(C#N)c(N3CCN(CC)CC3)o2)cc1"
measurement = 21

[[record]]
compound = "CSc1nc(NC(C)=O)nc(C)c1Cl"
measurement = -9.42

[[record]]
compound = "CC(=O)c1cc(C#N)c(SCc2ccncc2)nc1C"
measurement = -4.04

[[record]]
compound = "CC(C)CNc1nc2c(c(=O)n(C)c(=O)n2C)n1Cc1cccc(Br)c1"
measurement = -2.14

[[record]]
compound = "COc1cccc(OC)c1OCC(C)CNCC1CCCO1 (configuration not stated)"
measurement = -18.8

[[record]]
compound = "O=S(CCc1ccncc1)Cc1ccccc1 (configuration not stated)"
measurement = 26


====

# subject.of.test: Glucocorticoid receptor (Homo sapiens) (UniProt P04150)
# Sequence (P04150 whole entry, looked up): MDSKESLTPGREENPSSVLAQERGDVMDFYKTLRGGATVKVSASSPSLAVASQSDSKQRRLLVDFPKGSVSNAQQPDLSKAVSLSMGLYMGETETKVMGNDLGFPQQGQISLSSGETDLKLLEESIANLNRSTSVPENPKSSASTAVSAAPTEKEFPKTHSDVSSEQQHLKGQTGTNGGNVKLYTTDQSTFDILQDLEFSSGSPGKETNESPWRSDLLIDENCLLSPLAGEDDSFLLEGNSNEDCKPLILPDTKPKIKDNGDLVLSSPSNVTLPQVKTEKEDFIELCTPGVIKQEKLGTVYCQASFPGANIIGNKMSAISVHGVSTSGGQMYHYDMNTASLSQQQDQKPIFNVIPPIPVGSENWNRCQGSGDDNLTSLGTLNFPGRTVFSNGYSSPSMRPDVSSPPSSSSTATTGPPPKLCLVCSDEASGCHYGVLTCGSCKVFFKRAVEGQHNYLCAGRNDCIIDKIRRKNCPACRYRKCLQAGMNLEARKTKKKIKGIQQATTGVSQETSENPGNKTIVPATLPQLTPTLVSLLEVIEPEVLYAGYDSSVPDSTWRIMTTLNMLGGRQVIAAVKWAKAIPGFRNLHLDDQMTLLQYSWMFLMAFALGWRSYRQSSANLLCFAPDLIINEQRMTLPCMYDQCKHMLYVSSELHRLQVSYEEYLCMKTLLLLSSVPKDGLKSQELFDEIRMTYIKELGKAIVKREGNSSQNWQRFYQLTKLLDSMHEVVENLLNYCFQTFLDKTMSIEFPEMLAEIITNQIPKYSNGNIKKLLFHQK
# assay.remarks: GR-GFP Redistribution (AID 450); also: potency is read from the fitted curve at half-maximal effect
# condition.context: U2OS GR-GFP nuclear translocation, laser cytometry, 2 h; series mostly up to 20.6 µM
The source made the active and inactive calls.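 How the source made its calls: active means compounds whose dose series gives a full or clear partial fitted curve of increased nuclear translocation; inconclusive means weak partial curve or effect only at the top dose; inactive means no dose-dependent translocation response.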
observable: Potency

[[record]]
compound = "N#Cc1c(N)nc(SCc2ccccn2)c(C#N)c1-c1cccs1"
observable = "Potency"
measurement = "> 20.6 µM (inactive)"

[[record]]
compound = "Cn1c(=O)c2c3c(sc2n2c(SCC(=O)c4ccccc4)nnc12)COC(C)(C)C3"
observable = "Potency"
measurement = "> 20.6 µM (inactive)"

[[record]]
compound = "COc1ccc(-c2coc3ccc(O[C@@H]4O[C@@H](COC(C)=O)[C@@H](OC(C)=O)[C@@H](OC(C)=O)[C@H]4OC(C)=O)c(OC(C)=O)c3c2=O)cc1"
observable = "Potency"
measurement = "> 46 µM (inactive)"

[[record]]
compound = "Cc1cc(C(F)(F)F)c(C#N)c(SCC(=O)NC2CC2)n1"
observable = "Potency"
measurement = "> 20.6 µM (inactive)"

[[record]]
compound = "O=C(NCCN1CCOCC1)c1cc2n(n1)C(C(F)(F)F)CC(c1ccc(F)cc1)N2 (centres undefined)"
observable = "Potency"
measurement = "> 20.6 µM (inactive)"

[[record]]
compound = "CCN(CC)CCN1C(=O)C(=O)/C(=C(/O)c2c(C)[nH]c(C(=O)OC)c2C)C1c1cccc(OC)c1 (centres undefined)"
observable = "Potency"
measurement = "> 20.6 µM (inactive)"

[[record]]
compound = "CCSc1nc(O)c(C2OC(=O)c3c2ccc(OC)c3OC)c(=O)n1-c1ccccc1 (centres undefined)"
observable = "Potency"
measurement = "> 20.6 µM (inactive)"

[[record]]
compound = "COc1ccc(/C=N/n2cncn2)cc1COc1ccc(NC(C)=O)cc1"
observable = "Potency"
measurement = "> 20.6 µM (inactive)"

[[record]]
compound = "Cc1c(NC(=O)c2ccc(=O)oc2)c(=O)n(-c2ccccc2)n1C"
observable = "Potency"
measurement = "> 20.6 µM (inactive)"


Data provenance is PubChem BioAssay (NCATS).
